Please go through the items and note down their IC50.
Test system: MCF7-ADR (resistant)
Experiment: cells
Format: cell-based, human
Settings: Homo sapiens, NCI/ADR-RES; MCF7-ADR resistant cell line, in vitro
# do not omit the unit; it follows the number

Query: What value of IC50 has been recorded for this entry: CC(=O)O[C@H]1C(=O)[C@@]2(C)[C@H]([C@H](OC(=O)c3ccccc3)[C@]3(O)C[C@H](OC(=O)[C@H](O)[C@@H](NC(=O)c4ccccc4)c4ccccc4)C(C)=C1C3(C)C)[C@]1(OC(C)=O)CO[C@@H]1C[C@@H]2O [Taxol, reference compound]
Result: 0.36 µM

Query: Try COc1cc2c(c(OC)c1OC)-c1ccc(SC)c(=O)cc1[C@@H](NC(=O)C(F)(F)C(F)(F)F)CC2 next.
Result: 0.026 µM

Query: Same thing, different compound: COc1c(OC2C=CCC2)cc2c(c1OC)-c1ccc(SC)c(=O)cc1[C@@H](NC(=O)C(F)(F)C(F)(F)F)CC2 (stereo partly shown)
Result: 0.007 µM

Query: Subsequent entry: COc1cc2c(c(OC)c1OC)-c1ccc(SC)c(=O)cc1[C@@H](NC(=O)C(F)(F)C(F)(F)C(F)(F)F)CC2
Result: 0.031 µM
